- study target: UniProtKB O35678
- protocol details: Mouse brain proteomes from inhibitor treated mice (oral gavage, sacrificed 4 h after administration, ABPP analysis)
- Assay type: in vivo, mouse (C57Bl/6J)
- experimental conditions: 5 mg/kg oral gavage
- Procedure: Preparation of Mouse Brain Proteomes from Inhibitor Treated Mice. Inhibitors were administered to wild-type C57Bl/6J by oral gavage in a vehicle, e.g. PEG400/Ethanol/PBS (7/2/1). Each animal was sacrificed 4 h following administration and brain proteomes were prepared and analyzed according to previously established methods (See Niphakis, M. J., et al. (2011) ACS Chem. Neurosci. and Long, J. Z., et al. Nat. Chem. Biol. 5:37-44). Data from this assay is shown in Table 2 (% inhibition at 5 mg/kg).
measured parameter: MAGL % Inh 5 mg/kg (mouse)

1. O=C(OC(C(F)(F)F)C(F)(F)F)N1CCC2(CCCN2Cc2cccc(N3CCOCC3)c2Cl)CC1; ### (### is ≥75%)
2. N#Cc1cc(CN2CCCC23CCN(C(=O)OC(C(F)(F)F)C(F)(F)F)CC3)cc(N2CCC(C(=O)O)CC2)c1; ### (### is ≥75%)
3. O=C(OC(C(F)(F)F)C(F)(F)F)N1CCC2(CCCN2Cc2ccc(C(F)(F)F)cc2N2CC3COCC3C2)CC1 (stereo not shown); ### (### is ≥75%)
4. O=C(OC(C(F)(F)F)C(F)(F)F)N1CCC2(CCCN2Cc2ccc(N3CCCC3)c(C(F)(F)F)c2)CC1; ### (### is ≥75%)

Please examine the following record next.
So, `O=C(OC(C(F)(F)F)C(F)(F)F)N1CCC2(CCCN2Cc2cc(Cl)cc(N3CCCC3)c2)CC1` ? Its MAGL % Inh 5 mg/kg (mouse) was ### (### is ≥75%)

---

- study target: FAAH (Mus musculus (Mouse), UniProt O08914)
- Sequence (O08914 whole entry): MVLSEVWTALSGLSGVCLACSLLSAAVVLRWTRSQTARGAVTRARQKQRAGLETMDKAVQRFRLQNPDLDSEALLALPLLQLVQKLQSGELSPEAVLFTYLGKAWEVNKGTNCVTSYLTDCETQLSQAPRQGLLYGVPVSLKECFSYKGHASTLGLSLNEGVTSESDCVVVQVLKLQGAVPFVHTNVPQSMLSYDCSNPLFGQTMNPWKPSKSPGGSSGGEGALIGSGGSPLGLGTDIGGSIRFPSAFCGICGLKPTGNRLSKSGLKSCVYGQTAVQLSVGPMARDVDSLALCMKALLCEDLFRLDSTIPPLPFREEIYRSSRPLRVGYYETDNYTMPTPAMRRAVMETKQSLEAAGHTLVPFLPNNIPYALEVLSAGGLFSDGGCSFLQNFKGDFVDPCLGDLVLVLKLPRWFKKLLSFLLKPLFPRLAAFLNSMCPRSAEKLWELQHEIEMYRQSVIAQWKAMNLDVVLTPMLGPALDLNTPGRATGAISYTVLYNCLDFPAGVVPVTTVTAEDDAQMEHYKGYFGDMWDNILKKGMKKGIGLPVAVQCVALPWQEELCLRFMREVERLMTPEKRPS
- protocol details: Mouse brain proteomes from inhibitor treated mice (oral gavage, sacrificed 4 h after administration, ABPP analysis), FAAH
- Type: in vivo, mouse (C57Bl/6J)
- experimental conditions: 5 mg/kg oral gavage
measured parameter: FAAH % Inh 5 mg/kg (mouse)

1) N#Cc1cc(CN2CCCC23CCN(C(=O)OC(C(F)(F)F)C(F)(F)F)CC3)cc(N2CCC(C(=O)O)CC2)c1; # (# is <25%)
2) CC1(C)CC2(CCN(C(=O)OC(C(F)(F)F)C(F)(F)F)CC2)CN1Cc1ccc(Cl)cc1; # (# is <25%)
3) O=C(OC(C(F)(F)F)C(F)(F)F)N1CCC2(CCN(Cc3ccc(C(F)(F)F)cc3N3CC4COCC4C3)C2)CC1 (stereo not shown); # (# is <25%)

---

Overview of reported pIC50 across a group of molecules:
- study target: UniProt:Q8R2Y0
- protocol details: In vitro competitive activity-based protein profiling (mouse brain membrane fraction or cell lysates), ABHD6 band
- Format: biochemical
- experimental conditions: mouse proteome, competitive ABPP
pIC50: −log10 of the molar value.

So, CCN1CCCc2cccc(CN3CCCC34CCN(C(=O)OC(C(F)(F)F)C(F)(F)F)CC4)c21 [Example 158] ? Its pIC50 was < 6.00

So, O=C(OC(C(F)(F)F)C(F)(F)F)N1CCC2(CCCN2Cc2cc(N3CCS(=O)(=O)CC3)cc(C(F)(F)F)c2)CC1 [Example 42] ? Its pIC50 was < 6.00

So, O=C(OC(C(F)(F)F)C(F)(F)F)N1CCC2(CCN(Cc3ccc4c(c3)OCCO4)C2)CC1 [Example 137] ? Its pIC50 was > 7.00

---

- study target: MAGL (Homo sapiens (Human))
- Sequence (Q99685 whole entry): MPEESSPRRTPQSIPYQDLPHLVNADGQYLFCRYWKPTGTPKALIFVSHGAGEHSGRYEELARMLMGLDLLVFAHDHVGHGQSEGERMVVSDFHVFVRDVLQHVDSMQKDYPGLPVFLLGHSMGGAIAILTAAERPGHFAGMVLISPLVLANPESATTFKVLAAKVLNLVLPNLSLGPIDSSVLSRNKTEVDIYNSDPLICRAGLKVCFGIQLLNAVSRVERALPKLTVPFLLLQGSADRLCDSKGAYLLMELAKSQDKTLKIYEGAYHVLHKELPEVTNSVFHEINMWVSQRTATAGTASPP
- protocol details: In vitro competitive activity-based protein profiling (human prefrontal cortex or cell membrane fractions; hMAGL expressed in HEK293T cells)
- Format: biochemical
- experimental conditions: human
pIC50: −log10 of the molar value.
measured parameter: pIC50

1) O=C(O)C1CCN(Cc2ccc(CN3CCC4(CCN(C(=O)OC(C(F)(F)F)C(F)(F)F)CC4)C3)cc2C(F)(F)F)CC1; > 7.00

So, `O=C(O)C1CCN(C(=O)c2cc(C(F)(F)F)ccc2CN2CCCC23CCN(C(=O)OC(C(F)(F)F)C(F)(F)F)CC3)CC1` ? Its pIC50 was > 7.00

So, `O=C(O)C1CCN(c2cc(Cl)cc(CN3CCC4(CCN(C(=O)OC(C(F)(F)F)C(F)(F)F)CC4)C3)c2)CC1` ? Its pIC50 was > 7.00

So, `O=C(O)C1CCN(c2cc(F)cc(CN3CCC4(CCN(C(=O)OC(C(F)(F)F)C(F)(F)F)CC4)C3)c2)CC1` ? Its pIC50 was > 7.00

So, `O=C(O)C1CCN(c2cc(S(F)(F)(F)(F)F)ccc2CN2CCCC23CCN(C(=O)OC(C(F)(F)F)C(F)(F)F)CC3)CC1` ? Its pIC50 was > 7.00

So, CC1(C(=O)O)CN(c2cc(CN3CCC4(CCN(C(=O)OC(C(F)(F)F)C(F)(F)F)CC4)C3)cc(C(F)(F)F)c2)CCO1 (stereo not drawn) ? Its pIC50 was > 7.00

---

- study target: ABHD6 (Mus musculus (Mouse))
- protocol details: Mouse brain proteomes from inhibitor treated mice (oral gavage, sacrificed 4 h after administration, ABPP analysis), ABHD6
- Assay type: in vivo, mouse (C57Bl/6J)
- experimental conditions: 5 mg/kg oral gavage
measured parameter: ABHD6 % Inh 5 mg/kg (mouse)

1) O=C(OC(C(F)(F)F)C(F)(F)F)N1CCC2(CCCN2Cc2ccc(N3CCCC3)c(Cl)c2)CC1; # (# is <25%)
2) O=C(OC(C(F)(F)F)C(F)(F)F)N1CCC2(CCCN2Cc2ccc(Cl)cc2N2CCOCC2)CC1; # (# is <25%)

---

- study target: ABHD6 (Mus musculus (Mouse))
- protocol details: In vitro competitive activity-based protein profiling (mouse brain membrane fraction or cell lysates), ABHD6 band
- Format: biochemical
- experimental conditions: 1 μM, mouse; read-out: ABHD6 % Inh 1 μM (mouse)
Overview of reported inhibition at 1 µM across a group of compounds:

1) O=C(O)C1CCN(c2cc(CN3CCC4(CCN(C(=O)OC(C(F)(F)F)C(F)(F)F)CC4)C3)cc(C(F)(F)F)c2)CC1 [Example 279]; ≥ 75%

So, O=C(O)C1CCN(Cc2cc(Cl)cc(CN3CCCC34CCN(C(=O)OC(C(F)(F)F)C(F)(F)F)CC4)c2)C1 (stereo not shown) [Example 272] ? Its inhibition at 1 µM was < 25%

So, O=C(O)c1cccc(CN2CCCC23CCN(C(=O)OC(C(F)(F)F)C(F)(F)F)CC3)c1 [Example 242] ? Its inhibition at 1 µM was 25 to 75%

So, O=C(O)C1CCN(c2ccc(CN3CCC4(CCN(C(=O)OC(C(F)(F)F)C(F)(F)F)CC4)C3)cc2C(F)(F)F)CC1 [Example 228] ? Its inhibition at 1 µM was ≥ 75%

---

- study target: MAGL (Mus musculus (Mouse))
- Sequence (O35678 whole entry): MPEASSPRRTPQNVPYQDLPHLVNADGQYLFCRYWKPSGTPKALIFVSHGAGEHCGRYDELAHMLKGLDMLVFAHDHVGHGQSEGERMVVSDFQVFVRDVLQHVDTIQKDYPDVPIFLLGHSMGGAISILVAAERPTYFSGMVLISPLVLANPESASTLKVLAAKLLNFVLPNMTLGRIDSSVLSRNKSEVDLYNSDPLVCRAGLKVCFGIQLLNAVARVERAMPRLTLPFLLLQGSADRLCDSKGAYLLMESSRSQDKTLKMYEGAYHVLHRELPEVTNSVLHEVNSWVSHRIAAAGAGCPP
- protocol details: In vitro competitive activity-based protein profiling (mouse brain membrane fraction or cell lysates), MAGL band
- Assay type: biochemical
- experimental conditions: mouse proteome, competitive ABPP
pIC50: −log10 of the molar value.
Overview of reported pIC50 across a group of compounds:

Take a look at these entries with their results.
1) O=C(OC(C(F)(F)F)C(F)(F)F)N1CCC2(CCN(Cc3ccc(N4CCOCC4)c(C(F)(F)F)c3)C2)CC1; > 7.00
2) O=C(OC(C(F)(F)F)C(F)(F)F)N1CCC2(CCCN2Cc2cc(N3CCN(C4CC4)CC3)cc(C(F)(F)F)c2)CC1; > 7.00
3) Cc1cc(CN2CCCC23CCN(C(=O)OC(C(F)(F)F)C(F)(F)F)CC3)ccc1C(F)(F)F; 6.00 to 7.00
4) CCN1CCCc2cccc(CN3CCC4(CCN(C(=O)OC(C(F)(F)F)C(F)(F)F)CC4)C3)c21; > 7.00
5) O=C(OC(C(F)(F)F)C(F)(F)F)N1CCC2(CCN(Cc3ccc4c(c3)COC4)C2)CC1; 6.00 to 7.00
6) O=C(OC(C(F)(F)F)C(F)(F)F)N1CCC2(CCCN2Cc2cccc(N3CCCC3)c2Cl)CC1; > 7.00

So, `O=C(OC(C(F)(F)F)C(F)(F)F)N1CCC2(CCCN2Cc2cccc(N3CCCCC3)c2Cl)CC1` ? Its pIC50 was > 7.00

---

Overview of reported IC50 across a group of compounds:
- study target: ABHD6 (Mus musculus (Mouse), UniProt Q8R2Y0)
- Sequence (Q8R2Y0 whole entry): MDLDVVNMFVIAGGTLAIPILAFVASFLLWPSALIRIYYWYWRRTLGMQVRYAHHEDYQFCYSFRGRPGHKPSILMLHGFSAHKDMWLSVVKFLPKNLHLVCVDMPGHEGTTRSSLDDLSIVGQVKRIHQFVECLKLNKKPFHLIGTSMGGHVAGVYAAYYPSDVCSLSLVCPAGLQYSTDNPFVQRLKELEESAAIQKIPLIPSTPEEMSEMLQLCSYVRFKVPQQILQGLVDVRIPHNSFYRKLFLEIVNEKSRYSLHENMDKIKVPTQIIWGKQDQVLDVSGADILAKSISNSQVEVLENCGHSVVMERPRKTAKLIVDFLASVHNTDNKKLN
- protocol details: In vitro competitive activity-based protein profiling (mouse brain membrane fraction or cell lysates), ABHD6 band
- Assay type: biochemical
- experimental conditions: mouse proteome, competitive ABPP
- Description: In Vitro Competitive Activity-Based Protein Profiling. Proteomes (mouse brain membrane fraction or cell lysates) (50 μL, 1.0 mg/mL total protein concentration) were preincubated with varying concentrations of inhibitors at 37° C. […] Following gel imaging, serine hydrolase activity was determined by measuring fluorescent intensity of gel bands corresponding to MAGL, ABHD6 and FAAH using ImageJ 1.43u software.

Take a look at these entries with their results.
1) COC(=O)C1CCN(c2cc(C(F)(F)F)ccc2CN2CC3(CCN(C(=O)OC(C(F)(F)F)C(F)(F)F)CC3)CC2(C)C)CC1; > 1000 nM
2) O=C(OC(C(F)(F)F)C(F)(F)F)N1CCC2(CCCN2Cc2cc(N3CC4COCC4C3)cc(C(F)(F)F)c2)CC1 (centres unmarked); > 1000 nM
3) O=C(OC(C(F)(F)F)C(F)(F)F)N1CCC2(CCCN2Cc2ccc(C(F)(F)F)cc2N2CCCC2)CC1; > 1000 nM
4) CC1(C)CC2(CCN(C(=O)OC(C(F)(F)F)C(F)(F)F)CC2)CN1Cc1ccc(C(F)(F)F)cc1N1CC2COCC2C1 (centres unmarked); > 1000 nM
5) CC1(C)CC2(CCN(C(=O)OC(C(F)(F)F)C(F)(F)F)CC2)CN1Cc1cccc(OC(F)(F)F)c1N1CCOCC1; > 1000 nM
6) O=C(OC(C(F)(F)F)C(F)(F)F)N1CCC2(CCN(Cc3ccc(C(F)(F)F)cc3N3CCOCC3)C2)CC1; 100 to 1000 nM

So, `O=C(OC(C(F)(F)F)C(F)(F)F)N1CCC2(CCCN2Cc2cc(Cl)cc(N3CCOCC3)c2)CC1` ? Its IC50 was > 1000 nM

So, `CCOc1ccc(CN2CCCC23CCN(C(=O)OC(C(F)(F)F)C(F)(F)F)CC3)cc1` ? Its IC50 was > 1000 nM

So, `O=C(OC(C(F)(F)F)C(F)(F)F)N1CCC2(CCN(Cc3ccc(N4CCCC4)c(Cl)c3)C2)CC1` ? Its IC50 was 100 to 1000 nM

So, `CN(C)C(=O)C1CCN(c2cc(C(F)(F)F)ccc2CN2CCCC23CCN(C(=O)OC(C(F)(F)F)C(F)(F)F)CC3)CC1` ? Its IC50 was > 1000 nM

So, `CS(=O)(=O)N1CCc2cccc(CN3CCCC34CCN(C(=O)OC(C(F)(F)F)C(F)(F)F)CC4)c2C1` ? Its IC50 was > 1000 nM
